# Test Name: S. cerevisiae growth modulation with rapamycin, primary screen, strain BY4716, OD600, 96 h (AID 1091); further: test concentration not given here
# Measurement Setup: higher = more signal, called active from +8 up or from −8 down
Please use criterion met whenever z-score is not below -0.1, and criterion not met whenever it is.

Illustrative cases are given below, each with its answer.
CC(C)N1C(=O)C[C@@](C(=O)NCCCN(C)C)(c2ccc([N+](=O)[O-])cc2)[C@H]1c1ccc(CO)cc1 : criterion not met
C[C@H]1NC(=O)[C@@]23C(=O)N[C@@H](Cc4ccccc4)C2[C@H](C)[C@@]2(C)O[C@H]2C3/C=C/C/C=C\CNC(=O)[C@H](Cc2ccccc2)NC1=O (some centres undefined) : criterion met
C=C[C@@H](COC(C)=O)N(C(=O)OC(C)(C)C)S(=O)(=O)c1ccc(Br)cc1 : criterion not met
CCOc1cc(C(O)C2C=CC3C(=O)N(C)C(=O)C3N2Nc2ccccc2)ccc1O (centres undefined) : criterion met

Answer whether z-score of COc1ccc([Si](C)(C)[C@@H]2[C@@H](CC(=O)N(CCO)Cc3ccccc3)O[C@]3(C(=O)N(Cc4cccc(N5C(=O)c6cccc7cccc5c67)c4)c4ccccc43)[C@H]2C)cc1 is greater than or equal to -0.1.
criterion met

What do you get for COC(=O)[C@@]1(Cc2ccc(OC)cc2)[C@@H]2C(=CC(=O)[C@H]2CC(=O)C(=O)N(C)C)CN1C(=O)c1ccccc1 ?
criterion met

What do you get for O[C@@H](Cc1ccccc1)[C@@H](/C=C/C1CC1)N(CC#Cc1ccccc1)Cc1cccc(Cl)c1 ?
criterion met

What do you get for CC(C)C(=C=CC[C@H](O)c1cccc(OCCO)c1)C[C@H](O)c1cc(Cl)cc(Cl)c1O ?
criterion not met

What do you get for [N-]=[N+]=NCc1ccccc1[C@@H]1OC(c2ccc(OCCCO)cc2)=N[C@]1(CCS(=O)(=O)c1ccccc1)C(=O)NCC(O)CO (some centres undefined) ?
criterion met

---

In this section we review reported z-score values for a set of compounds.
# Test Name: Plasmodium falciparum growth inhibition, primary screen, strain 3D7, DAPI fluorescence, 100 nL (AID 1184);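 further: parasites grown inside human red blood cells in medium with human serum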
# Measurement Setup: P. falciparum 3D7 growth, 3 d, higher = more signal

Before answering, review these 3 worked examples.
COc1ccc(NC(=O)O[C@H]2[C@H](OC(=O)Nc3ccccc3)[C@@H](OC(=O)Nc3ccccc3)[C@@H](OC)O[C@@H]2CO)cc1 : -2.47
COC(=O)c1nc2oc1CC[C@@H](CO)NC(=O)N(C)Cc1cnnn1C[C@H](Cc1ccccc1)NC2=O : 1.06
O=C1OCC=C[C@H]2OC34C=CCN(c5ccc(Cl)cc5)C(=O)[C@H]3N(CCO)C(=O)[C@@H]4[C@@H]12 (some centres undefined) : 1.05

// moving on: another record for z-score
Which z-score reading was recorded for the compound O=C1O[C@H](c2ccccc2)[C@H](c2ccccc2)N2[C@H]1[C@@H](C(=O)Nc1nc3ccccc3s1)[C@]1(C(=O)Nc3ccc(C#CC4(O)CCCCCC4)cc31)[C@H]2c1ccccc1OCCO ?
-2.09

---

# Test Name: PSAC antagonists in infected red cells, primary screen, cell-based, P. falciparum Indochina, OD700, 1 h (AID 1154)
# Measurement Setup: P. falciparum Indochina infected RBC osmotic lysis, called active from +8 up or from −8 down
The source made the active and inactive calls.
Write down the outcome that applies. Available outcomes: T = active, F = inactive

Illustrative cases are given below, each with its answer.
O=C(NCC(F)(F)F)[C@@H]1c2ccccc2C(=O)N(Cc2ccc(OC(F)(F)F)cc2)[C@H]1c1ccc(CO)cc1 : F
Cc1ccc(S[C@]2(C(=O)O)CC(=O)N(C3Cc4ccccc4C3)[C@@H]2c2ccc(CO)cc2)cc1 : F
O=C(N1CCCCC1)[C@@]1(CCS(=O)(=O)c2ccccc2)COC(c2ccc(OCCCO)cc2)=N1 : T
CC(C)Cc1ccc(CN2CC[C@@H](NC(=O)Nc3ccccc3)C2)cc1 : F
CCCCCCCCCCC(O)C1C=CC2C(=O)N(C)C(=O)C2N1Nc1ccc([N+](=O)[O-])cc1[N+](=O)[O-] (stereo not given) : T

Hi, do you know how C=CCC(OC(C)=O)[C@@H]1[C@@H](N(Cc2cccc3ccccc23)C(=O)Cc2ccc(OC)cc2)c2cc(OCCCO)ccc2N1C(=O)c1ccc2ccccc2n1 (stereo not given in full) came out in this test?
F

---

In this section we review reported composite z-score values for a set of molecules.
# System: Wnt5a (protein binding on small-molecule microarray)
# Test Name: Wnt5a binders on small-molecule microarray, primary screen, biophysical, 635/667 nm fluorescence (AID 1142);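 further: fluorescence read at 667 nm with signal to noise per printed feature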
# Measurement Setup: 635 nm fluorescence, higher = more signal
Enter a number only.

Before answering, review these 5 worked examples.
CC(CO)N1C(=O)[C@@H]2[C@H]3C(=O)OCC=C[C@H]3OC23C=CCN(C(C)(C)C)C(=O)[C@@H]13 (stereo not given in full) : -0.329
CC(C)C[C@@H]1NC(=O)[C@@H]2C[C@H](C(=O)NCCCCCN)[C@H](c3ccc(O)cc3)N2C1=O : 0.329
CCCCCCCCCCC(O)C1C=CC2C(=O)N(C)C(=O)C2N1NC(=O)OC(C)(C)C (stereo not given) : -0.121
Cc1ccc(S[C@]2(C(=O)NCC(F)(F)F)CC(=O)N(C3CCCCC3)[C@@H]2c2ccc(CO)cc2I)cc1 : -0.0208
COc1ccc([Si](C)(C)[C@@H]2[C@@H](CC(=O)N(CCO)Cc3ccccc3)O[C@]3(C(=O)N(Cc4cccc(N5CCOC5=O)c4)c4ccccc43)[C@H]2C)cc1 : -0.129

Which composite z-score reading was recorded for the molecule COc1cc2c(cc1O)C(C)N(Cc1ccc([N+](=O)[O-])o1)CC2 (stereo not given) ?
0.322

---

# Tested Target: Luciferin 4-monooxygenase (Photinus pyralis) (UniProt P08659)
# Sequence (P08659 whole entry, looked up): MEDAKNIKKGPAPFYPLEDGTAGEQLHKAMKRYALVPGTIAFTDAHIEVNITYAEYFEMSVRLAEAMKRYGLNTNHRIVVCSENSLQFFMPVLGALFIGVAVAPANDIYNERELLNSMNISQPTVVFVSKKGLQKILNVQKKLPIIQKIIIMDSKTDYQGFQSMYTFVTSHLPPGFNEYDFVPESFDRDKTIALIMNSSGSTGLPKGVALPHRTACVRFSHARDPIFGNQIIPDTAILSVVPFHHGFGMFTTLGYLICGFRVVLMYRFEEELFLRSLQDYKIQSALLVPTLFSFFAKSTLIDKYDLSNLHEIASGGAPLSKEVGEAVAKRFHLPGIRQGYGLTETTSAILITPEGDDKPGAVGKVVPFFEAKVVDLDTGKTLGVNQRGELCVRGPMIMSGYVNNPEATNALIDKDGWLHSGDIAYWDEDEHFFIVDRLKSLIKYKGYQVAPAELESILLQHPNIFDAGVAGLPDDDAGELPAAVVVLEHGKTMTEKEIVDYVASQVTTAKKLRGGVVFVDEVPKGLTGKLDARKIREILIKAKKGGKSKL
# Test Name: firefly luciferase enzyme inhibitors, primary screen, biochemical, luminescence, purified enzyme, 2006 set (AID 1141);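 further: cell-free assay with purified firefly luciferase at 100 ng per well in PBS; test concentration not given here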
# Measurement Setup: SteadyGlo luminescence, 30 min, higher = more signal, called active from +8 up or from −8 down
In this section we review reported z-score values for a set of compounds.
Enter a number only.

Before answering, review these 5 worked examples.
CC(C)(C)OC(=O)CC[C@]1(C(=O)NCC(O)CO)N=C(c2ccc(OCCCO)cc2)O[C@H]1c1ccccc1 (stereo partly drawn) : -1
C=CCOC(=O)[C@H]1[C@@H]2C(=O)O[C@@H](c3ccccc3)[C@@H](c3ccccc3)N2[C@@H](c2ccc(OCCOC(=O)[C@@H]3C[C@@H]4C(=O)N[C@@H](CCCCN(C)C)C(=O)N4[C@@H]3c3ccc(O)cc3)cc2)[C@]12C(=O)Nc1ccccc12 : -3.27
O=C1N(Cc2ccccc2)Cc2ccccc2[C@@H]2OC(c3ccc(OCCCO)cc3)=N[C@]12CCS(=O)(=O)c1ccccc1 : -0.929
NC(=O)NCC#Cc1ccc2c(c1)[C@]1(C(=O)N2)[C@H](C(=O)NC[C@H](O)c2ccccc2)[C@H]2C(=O)O[C@H](c3ccccc3)[C@H](c3ccccc3)N2[C@@H]1c1ccc(OCCO)cc1 : -1.9
CN1C(=O)C2C=CC(C(O)c3cccc4ccccc34)N(N3CCCCC3)C2C1=O (stereo not drawn) : -0.848

Which z-score reading was recorded for the compound CCOc1cc(C(O)C2C=CC3C(=O)N(c4ccccc4)C(=O)C3N2Nc2ccc(C#N)cc2)ccc1O (stereo not drawn) ?
-0.519

What do you get for COc1cc2c(cc1O)C(C)N(Cc1ccc([N+](=O)[O-])o1)CC2 (stereo not drawn) ?
-0.0107

What do you get for CO[C@H]1O[C@H](CO)[C@@H](OC(=O)Nc2ccccc2-c2ccccc2)[C@H](OC(=O)Nc2ccc3c(c2)OCO3)[C@H]1OC(=O)Nc1ccc2c(c1)OCO2 ?
-6.15

What do you get for COCCOC(=O)N1C(=O)[C@@]2(c3ccccc31)[C@H](C(=O)N1CCN(c3ncccn3)CC1)[C@H]1C(=O)O[C@H](c3ccccc3)[C@H](c3ccccc3)N1[C@@H]2c1ccc(O)cc1 ?
-0.378

What do you get for COCCOC(=O)N1C(=O)[C@@]2(c3cc(C#CC4=CCCCC4)ccc31)[C@H](c1ccc(OCCO)cc1)N1[C@H](c3ccccc3)[C@H](c3ccccc3)OC(=O)[C@H]1[C@@H]2C(=O)N1CCN(c2ncccn2)CC1 ?
-2.01

What do you get for Cc1ccc(S[C@]2(C(=O)NCC(F)(F)F)CC(=O)N(Cc3ccccc3C(F)(F)F)[C@@H]2c2ccc(CO)cc2I)cc1 ?
0.84

What do you get for [N-]=[N+]=Nc1ccccc1[C@H]1OC(c2ccc(OCCCO)cc2)=N[C@@]1(CCS(=O)(=O)c1ccccc1)C(=O)NCCN1CCOCC1 ?
-6.93

What do you get for NC(=O)NCC#Cc1ccc2c(c1)[C@]1(C(=O)N2)[C@H](C(=O)O)[C@H]2C(=O)O[C@H](c3ccccc3)[C@H](c3ccccc3)N2[C@@H]1c1ccc(OCCO)cc1 ?
-2.23
